# protocol-notes: TEAD-YAP interaction inhibition, primary screen, TEAD-YAP interaction inhibitor project, luminescence, HEK-TIYL cells (AID 1259422)
# condition-notes: TEAD-Gal4/YAP UAS-luciferase luminescence, at 9.12 µM
Among all 640,000 compounds or so, about 9,300 (1.5%) were called active. Rule as the data show it: active = inhibition above about 32%; inactive = the rest. For the sample, actives were picked, then their nearest neighbours and some compounds at random.
Respond with a class label; see active, inactive

Worked cases, answers included:
compound	assigned-class
COc1ccc(C(=O)N2CCC[C@@H]2[C@@H](O)c2cccs2)cc1Cn1cccn1	inactive
COc1cccc(CC2=NOC(C(=O)NC(C)Cc3ccsc3)C2)c1 (stereo unspecified)	inactive
CCOC(=O)c1cnn(-c2nc3ccccc3s2)c1CNC(C)c1ccco1 (stereo unspecified)	inactive
CCOC(=O)c1ccc2nc(C34CC5CC(CC(C5)C3)C4)ccc2c1	active

Problem: Record request — test call for `Cc1cccc(N2C(=O)NC(=O)/C(=C\c3ccc(I)o3)C2=O)c1C`
Result: inactive

Problem: # outcome recorded in this test, key = `COc1ccc(CCNc2nc(-c3c(C)noc3C)nc3c2ncn3Cc2ccc(C(F)(F)F)cc2)cc1`
Result: active

Problem: Could you check what this test reported for `FC(F)(F)c1cccc(-c2ccc(/C=N/Nc3nn[nH]n3)o2)c1` ?
Result: inactive

Problem: // outcome(item) with item = `COc1ccc(C)cc1S(=O)(=O)N1CCN(c2cc(-n3ccnc3C)ncn2)CC1`
Result: active

Problem: # outcome recorded in this test, key = `CCOC(=O)c1ccc2c(c1)C(=O)N(c1ccc3ccccc3c1)C2=O`
Result: inactive

Problem: Entry `Cc1ccsc1/C=N/NS(=O)(=O)c1ccc(Br)cc1` : call = ?
Result: inactive

Problem: How did this test come out for `CCc1ccc(N/C(SCc2cccc([N+](=O)[O-])c2)=C(/C#N)C(=O)NCc2ccco2)cc1` ?
Result: inactive

Problem: Look up the recorded call for `Cn1c(=O)cc(OCC(=O)NCCN2CCOCC2)c2ccccc21` in this test.
Result: inactive

Problem: Called result for `O=C(NCCOc1ccccc1)c1ccc2nc(NCCN3CCOCC3)sc2c1`
Result: inactive

Problem: # outcome recorded in this test, key = Cc1ccc2c(c1)CN(CCC(=O)NCC(C)(C)CO)CC(C)O2 (stereo unspecified)
Result: inactive

Problem: Query: recorded result category for `CCN1C(=O)/C(=c2\sc3nc(-c4ccccc4)nn3c2=O)c2ccccc21` in this test
Result: inactive

Problem: Test call for this compound, please: `CC(C)[C@@H](CO)Nc1ccc2ncc(-c3ccc(O)cc3)n2n1`
Result: inactive

Problem: For `Cc1ccc(Nc2nc(-c3ccccc3Cl)nc3ccccc23)cc1Cl` , which call appears in the assay record?
Result: inactive

Problem: What is the recorded call for this compound in the test? `Cc1noc(/C=C/N(C)C)c1S(=O)(=O)N1CCC(C(=O)N2CCCC2)CC1`
Result: inactive

Problem: What did this assay record as the result for Cc1c(SC(F)(F)C(F)C(F)(F)F)c(=O)n(-c2ccccc2)n1C (stereo unspecified) ?
Result: inactive

Problem: Query: recorded result category for `CCNc1nc(NCCc2ccc(OC)cc2)c2ncn(Cc3ccc(C(F)(F)F)cc3)c2n1` in this test
Result: inactive

Problem: Kindly provide the recorded test outcome for the following compound: `CCN(CC)S(=O)(=O)c1ccc(N2CCc3ccccc32)c([N+](=O)[O-])c1`
Result: inactive
